- Test system: NCI-H2009 (Lung Adenocarcinoma)
- EXPERIMENT DESCRIPTION: combination Emax (second highest fraction inhibited in the dose matrix, 72 h); higher = more inhibition; extreme values may be limits of the assay

MOLECULE: N#Cc1cnc(Nc2cc(NC[C@H]3CNCCO3)c(C(F)(F)F)cn2)cn1 [SRA737] + C=CCn1c(=O)c2cnc(Nc3ccc(N4CCN(C)CC4)cc3)nc2n1-c1cccc(C(C)(C)O)n1 [AZD1775] (first compound max 10 µM, partner max 1 µM)
ASSAY SYSTEM: NCI-H2009 (Lung Adenocarcinoma)
combination Emax: 0.82

MOLECULE: CN(CCO)CC[C@H](CSc1ccccc1)Nc1ccc(S(=O)(=O)NC(=O)c2ccc(N3CCC([C@@H](O)c4ccccc4-c4ccc(Cl)cc4)CC3)cc2)cc1S(=O)(=O)C(F)(F)F [AZD4320] + CCN(CCO)CCCOc1ccc2c(Nc3cc(CC(=O)Nc4cccc(F)c4)[nH]n3)ncnc2c1 [AZD2811] (first compound max 1 µM, 7x7, partner max 1 µM)
ASSAY SYSTEM: NCI-H2009 (Lung Adenocarcinoma)
combination Emax: 0.224

MOLECULE: CC1(C)CCC(CN2CCN(c3ccc(C(=O)NS(=O)(=O)c4ccc(NCC5CCOCC5)c([N+](=O)[O-])c4)c(Oc4cnc5[nH]ccc5c4)c3)CC2)=C(c2ccc(Cl)cc2)C1 [Venetoclax] + CS(=O)(=O)CCNCc1ccc(-c2ccc3ncnc(Nc4ccc(OCc5cccc(F)c5)c(Cl)c4)c3c2)o1 [Lapatinib] (first compound max 1 µM, 7x7, partner max 10 µM)
ASSAY SYSTEM: NCI-H2009 (Lung Adenocarcinoma)
combination Emax: 0.151

* * *

- Test system: NCI-H2452 (Mesothelioma)
- EXPERIMENT DESCRIPTION: combination Emax (second highest fraction inhibited in the dose matrix, 72 h); higher = more inhibition; extreme values may be limits of the assay
Param threshold (0.6) applies to combination Emax; output rule met when value >= threshold, rule not met when value < threshold.

MOLECULE: CN(CCO)CC[C@H](CSc1ccccc1)Nc1ccc(S(=O)(=O)NC(=O)c2ccc(N3CCC([C@@H](O)c4ccccc4-c4ccc(Cl)cc4)CC3)cc2)cc1S(=O)(=O)C(F)(F)F [AZD4320] + CCN(CCO)CCCOc1ccc2c(Nc3cc(CC(=O)Nc4cccc(F)c4)[nH]n3)ncnc2c1 [AZD2811] (first compound max 1 µM, 7x7, partner max 1 µM)
LABEL VALUE: rule not met

MOLECULE: CC1(C)CCC(CN2CCN(c3ccc(C(=O)NS(=O)(=O)c4ccc(NCC5CCOCC5)c([N+](=O)[O-])c4)c(Oc4cnc5[nH]ccc5c4)c3)CC2)=C(c2ccc(Cl)cc2)C1 [Venetoclax] + COc1cc(Nc2ncc3c(n2)-c2ccc(Cl)cc2C(c2c(F)cccc2OC)=NC3)ccc1C(=O)O [Alisertib] (first compound max 1 µM, 7x7, partner max 10 µM)
LABEL VALUE: rule not met

MOLECULE: C[C@@H](Nc1cc(F)cc(F)c1)c1cc(C(=O)N(C)C)cc2c(=O)cc(N3CCOCC3)oc12 [AZD8186] + C1CN(CCC1(C(=O)N[C@@H](CCO)C2=CC=C(C=C2)Cl)N)C3=NC=NC4=C3C=CN4 [AZD5363] (first compound max 10 µM, 7x7, partner max 10 µM)
LABEL VALUE: rule not met

MOLECULE: Cc1c2c(nn1C)CSCc1cc(n(C)n1)CSc1cc(c3ccccc3c1)OCCCc1c(C(=O)O)n(C)c3c-2c(Cl)ccc13 [AZD5991] + C[C@@H]1COCCN1C2=NC(=NC(=C2)C3(CC3)[S@](=N)(=O)C)C4=C5C=CNC5=NC=C4 [AZD6738] (first compound max 1 µM, 7x7, partner max 10 µM)
LABEL VALUE: rule not met

MOLECULE: Cc1c2c(nn1C)CSCc1cc(n(C)n1)CSc1cc(c3ccccc3c1)OCCCc1c(C(=O)O)n(C)c3c-2c(Cl)ccc13 [AZD5991] + CS(=O)(=O)CCNCc1ccc(-c2ccc3ncnc(Nc4ccc(OCc5cccc(F)c5)c(Cl)c4)c3c2)o1 [Lapatinib] (first compound max 1 µM, 7x7, partner max 10 µM)
LABEL VALUE: rule not met

MOLECULE: Cc1c2c(nn1C)CSCc1cc(n(C)n1)CSc1cc(c3ccccc3c1)OCCCc1c(C(=O)O)n(C)c3c-2c(Cl)ccc13 [AZD5991] + C=CCn1c(=O)c2cnc(Nc3ccc(N4CCN(C)CC4)cc3)nc2n1-c1cccc(C(C)(C)O)n1 [AZD1775] (first compound max 1 µM, partner max 1 µM)
LABEL VALUE: rule met

* * *

- Tested on: HT-144 (Melanoma)
- EXPERIMENT DESCRIPTION: Bliss excess, mean over the matrix (fraction); higher = more synergy
Outcome: label 1 for Bliss excess of at least -0.006; label 0 for anything lower.

COMPOUND: Cc1cc2ncnn2cc1Nc1ncc2c(n1)n(C1CCOCC1)c(=O)n2C [AZD7648] + C=CCn1c(=O)c2cnc(Nc3ccc(N4CCN(C)CC4)cc3)nc2n1-c1cccc(C(C)(C)O)n1 [AZD1775] (first compound max 10 µM, partner max 1 µM)
LABEL VALUE: label 1
//
COMPOUND: Cn1cnc2c(F)c(Nc3ccc(Br)cc3Cl)c(C(=O)NOCCO)cc21 [Selumetinib] + C=CCn1c(=O)c2cnc(Nc3ccc(N4CCN(C)CC4)cc3)nc2n1-c1cccc(C(C)(C)O)n1 [AZD1775] (first compound max 10 µM, partner max 1 µM)
LABEL VALUE: label 0
//
COMPOUND: CC1(C)CCC(CN2CCN(c3ccc(C(=O)NS(=O)(=O)c4ccc(NCC5CCOCC5)c([N+](=O)[O-])c4)c(Oc4cnc5[nH]ccc5c4)c3)CC2)=C(c2ccc(Cl)cc2)C1 [Venetoclax] + C=CCn1c(=O)c2cnc(Nc3ccc(N4CCN(C)CC4)cc3)nc2n1-c1cccc(C(C)(C)O)n1 [AZD1775] (first compound max 1 µM, partner max 1 µM)
LABEL VALUE: label 0
//
COMPOUND: Cc1cc2ncnn2cc1Nc1ncc2c(n1)n(C1CCOCC1)c(=O)n2C [AZD7648] + CN(C)CCCOc1ccc(-c2ccc3ncc4c(c3c2)n(C2CCOCC2)c(=O)n4C)cn1 [AZD0156] (first compound max 10 µM, 7x7, partner max 1 µM)
LABEL VALUE: label 1
//
COMPOUND: C=CCn1c(=O)c2cnc(Nc3ccc(N4CCN(C)CC4)cc3)nc2n1-c1cccc(C(C)(C)O)n1 [AZD1775] + C1CN(CCC1(C(=O)N[C@@H](CCO)C2=CC=C(C=C2)Cl)N)C3=NC=NC4=C3C=CN4 [Capivasertib] (first compound max 3 µM, partner max 3 µM)
LABEL VALUE: label 1
//
COMPOUND: CC(=O)c1c(C)c2cnc(Nc3ccc(N4CCNCC4)cn3)nc2n(C2CCCC2)c1=O [Palbociclib] + CN(CC[C@H](CSC1=CC=CC=C1)NC2=C(C=C(C=C2)S(=O)(=O)NC(=O)C3=CC=C(C=C3)N4CCC(CC4)[C@H](C5=CC=CC=C5C6=CC=C(C=C6)Cl)O)S(=O)(=O)C(F)(F)F)CCO [AZD4320] (first compound max 10 µM, 7x7, partner max 1 µM)
LABEL VALUE: label 0

* * *

Listing: Bliss excess of selected compounds
- Test system: C32 (Melanoma)
- EXPERIMENT DESCRIPTION: Bliss excess, mean over the matrix (fraction); higher = more synergy
EXPERIMENTAL READOUT: Bliss excess

COMPOUND: CN(C)CCCOc1ccc(-c2ccc3ncc4c(c3c2)n(C2CCOCC2)c(=O)n4C)cn1 [AZD0156] + CCN(CCO)CCCOc1ccc2c(Nc3cc(CC(=O)Nc4cccc(F)c4)[nH]n3)ncnc2c1 [AZD2811] (first compound max 1 µM, 7x7, partner max 1 µM)
QUANTITATIVE READOUT: -0.0213
//
COMPOUND: CCN(CCO)CCCOc1ccc2c(Nc3cc(CC(=O)Nc4cccc(F)c4)[nH]n3)ncnc2c1 [AZD2811] + C[C@@H]1COCCN1C2=NC(=NC(=C2)C3(CC3)[S@](=N)(=O)C)C4=C5C=CNC5=NC=C4 [AZD6738] (first compound max 1 µM, 7x7, partner max 10 µM)
QUANTITATIVE READOUT: -0.0803

* * *

- System: A375 (Melanoma)
- EXPERIMENT DESCRIPTION: Bliss excess, mean over the matrix (fraction); higher = more synergy
EXPERIMENTAL READOUT: Bliss excess

COMPOUND: Cc1c2c(nn1C)CSCc1cc(n(C)n1)CSc1cc(c3ccccc3c1)OCCCc1c(C(=O)O)n(C)c3c-2c(Cl)ccc13 [AZD5991] + CS(=O)(=O)CCNCc1ccc(-c2ccc3ncnc(Nc4ccc(OCc5cccc(F)c5)c(Cl)c4)c3c2)o1 [Lapatinib] (first compound max 1 µM, 7x7, partner max 10 µM)
RESULT: 0.0109

COMPOUND: CCN(CCO)CCCOc1ccc2c(Nc3cc(CC(=O)Nc4cccc(F)c4)[nH]n3)ncnc2c1 [AZD2811] + C=CCn1c(=O)c2cnc(Nc3ccc(N4CCN(C)CC4)cc3)nc2n1-c1cccc(C(C)(C)O)n1 [AZD1775] (first compound max 1 µM, partner max 1 µM)
RESULT: 0.0143

COMPOUND: CS(=O)(=O)CCNCc1ccc(-c2ccc3ncnc(Nc4ccc(OCc5cccc(F)c5)c(Cl)c4)c3c2)o1 [Lapatinib] + NC1(c2ccc(-c3nc4ccn5c(=O)[nH]nc5c4cc3-c3ccccc3)cc2)CCC1 [MK-2206] (first compound max 10 µM, 7x7, partner max 10 µM)
RESULT: -0.0031

COMPOUND: Cc1cc2ncnn2cc1Nc1ncc2c(n1)n(C1CCOCC1)c(=O)n2C [AZD7648] + CN(C)CCCOc1ccc(-c2ccc3ncc4c(c3c2)n(C2CCOCC2)c(=O)n4C)cn1 [AZD0156] (first compound max 10 µM, 7x7, partner max 1 µM)
RESULT: 0.0165

COMPOUND: O=C(c1cc(Cc2n[nH]c(=O)c3ccccc23)ccc1F)N1CCN(C(=O)C2CC2)CC1 [Olaparib] + CN(CC[C@H](CSC1=CC=CC=C1)NC2=C(C=C(C=C2)S(=O)(=O)NC(=O)C3=CC=C(C=C3)N4CCC(CC4)[C@H](C5=CC=CC=C5C6=CC=C(C=C6)Cl)O)S(=O)(=O)C(F)(F)F)CCO [AZD4320] (first compound max 10 µM, 7x7, partner max 1 µM)
RESULT: -0.0091

COMPOUND: COc1cccc(OCCCN)c1-c1cc(Nc2cnc(C#N)cn2)n[nH]1 [Prexasertib] + CN(C)CCCOc1ccc(-c2ccc3ncc4c(c3c2)n(C2CCOCC2)c(=O)n4C)cn1 [AZD0156] (first compound max 1 µM, 7x7, partner max 1 µM)
RESULT: 0.0098

COMPOUND: N#Cc1cnc(Nc2cc(NC[C@H]3CNCCO3)c(C(F)(F)F)cn2)cn1 [SRA737] + Nc1ccn([C@@H]2O[C@H](CO)[C@@H](O)C2(F)F)c(=O)n1 [Gemcitabine] (first compound max 10 µM, 7x7, partner max 0.3 µM)
RESULT: 0.0398
